# Target desc: UniProt:Q923Y8
# Test method notes: Radioligand binding assay on mouse TAAR1
# Condition label: mouse TAAR1, membranes of stably transfected HEK-293 cells; first value of the pair; read-out: Ki (μM) mouse/rat: mouse
# Procedure: For the construction of expression plasmids the coding sequences of human, rat and mouse TAAR 1 were amplified from genomic DNA essentially as described by Lindemann et al.. […] Cells were released from culture flasks using trypsin/EDTA, harvested, washed twice with ice-cold PBS (without Ca^2+ and Mg^2+), pelleted at 1,000 rpm for 5 min at 4° C., frozen and stored at −80° C. […] With each new membrane batch the dissociation constant (Kd) was determined via a saturation curve. […]
Property name: log10 of Ki (log10 of the value in µM)
// units: µM (pre-log); metric: Ki; scale: log10

Find log10 of Ki (UniProt:Q923Y8) for the entry CC(C)Cc1n[nH]c(C(=O)Nc2ccc([C@@H]3CNCCO3)nc2)c1F [Example 89]
-1.88

Could you do the same for Clc1ccc(Nc2cnc(C3CNCCO3)c(Cl)c2)nc1 (racemic) [Example 102] , please?
-0.75

Try the compound CC(C)c1cc(C(=O)Nc2ccc([C@@H]3CNCCO3)nc2)n(CC(F)(F)F)n1 [Example 92]
-0.58

Proceed to O=C(Nc1ccc([C@@H]2CNCCO2)nc1)c1[nH]nc(C2CC2)c1Cl [Example 40]
-2.05

Queued: Clc1ccc(Nc2ccc([C@H]3CNCCO3)nc2)cc1 [Example 24]
-1.91

Ok, now Cc1cc(C(=O)Nc2ccc([C@@H]3CNCCO3)nc2)nc(C(F)(F)F)n1 [Example 69]
-1.12

Now the same for FC(F)(F)c1ccc(Nc2ccc([C@@H]3CNCCO3)nc2)cn1 [Example 22]
-1.90

Query Cc1n[nH]c(C(=O)Nc2ccc([C@H]3CNCCO3)nc2)c1Cl [Example 64] next
-1.74

Would you kindly repeat that for Cc1cc(C(=O)Nc2ccc([C@H]3CNCCO3)nc2)nc(C(F)(F)F)n1 [Example 68] ?
-1.14

Would you kindly repeat that for FC(F)(F)c1nccc(Nc2ccc(C3CNCCO3)nc2)n1 (racemic) [Example 17] ?
-1.42

And for O=C(Nc1cnc(C2CNCCO2)nc1)Nc1cccc(Cl)c1 (racemic) [Example 73] ?
-2.23

Now the compound FC(F)(F)c1cccc(Nc2ccc([C@@H]3CNCCO3)nc2)n1 [Example 30]
-2.47

Would you mind doing Fc1ccc(Nc2ccc(C3CNCCO3)nc2)cc1 (racemic) [Example 5] as well?
-2.19

For Brc1ccc(Nc2ccc(C3CNCCO3)nc2)cc1 (racemic) [Example 2] then?
-2.74

// same read-out, input: CCc1n[nH]c(C(=O)Nc2ccc([C@H]3CNCCO3)nc2)c1C [Example 66]
-1.95

Input CC(C)c1cc(C(=O)Nc2ccc([C@H]3CNCCO3)nc2)[nH]n1 [Example 58]
-1.43

----------
# Target desc: mouse TAAR1 (Mus musculus (Mouse), UniProt Q923Y8)
# Sequence (Q923Y8 whole entry): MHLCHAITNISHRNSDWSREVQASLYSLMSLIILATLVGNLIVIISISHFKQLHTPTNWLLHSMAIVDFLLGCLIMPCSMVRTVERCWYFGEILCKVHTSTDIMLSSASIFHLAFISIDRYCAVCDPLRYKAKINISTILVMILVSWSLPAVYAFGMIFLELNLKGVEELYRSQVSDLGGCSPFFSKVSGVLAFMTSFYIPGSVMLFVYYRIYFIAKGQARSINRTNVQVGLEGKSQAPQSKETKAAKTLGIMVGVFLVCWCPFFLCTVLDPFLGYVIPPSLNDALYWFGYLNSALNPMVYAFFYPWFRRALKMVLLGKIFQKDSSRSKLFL
# Test method notes: Radioligand binding assay on mouse TAAR1
# Condition label: mouse TAAR1, membranes of stably transfected HEK-293 cells; first value of the pair; read-out: Ki (μM) mouse/rat: mouse
# Protocol: For the construction of expression plasmids the coding sequences of human, rat and mouse TAAR 1 were amplified from genomic DNA essentially as described by Lindemann et al.. […] Cells were released from culture flasks using trypsin/EDTA, harvested, washed twice with ice-cold PBS (without Ca^2+ and Mg^2+), pelleted at 1,000 rpm for 5 min at 4° C., frozen and stored at −80° C. […] With each new membrane batch the dissociation constant (Kd) was determined via a saturation curve. […]
Below, each of the compounds is paired with its reported log10 Ki value.
On a log10 scale: recorded Ki, unit µM.

Worked set:
* O=C(Nc1cnc(C2CNCCO2)c(Cl)c1)c1ccnc(C(F)(F)F)c1 (racemic) | -0.84
* CCCCc1n[nH]c(C(=O)Nc2ccc([C@@H]3CNCCO3)nc2)c1F | -2.42
* CCCCc1cc(C(=O)Nc2ccc([C@@H]3CNCCO3)nc2)[nH]n1 | -2.51
* CCCc1n[nH]c(C(=O)Nc2cnc(C3CNCCO3)c(F)c2)c1Cl (racemic) | -2.32
* O=C(Nc1ccc([C@H]2CNCCO2)nc1)c1[nH]nc(C2CC2)c1Cl | -2.02
* CCc1n[nH]c(C(=O)Nc2ccc([C@H]3CNCCO3)nc2)c1Cl | -2.41
* O=C(Nc1ccc([C@H]2CNCCO2)nc1)c1cccc(C(F)(F)F)c1 | -2.19
* O=C(Nc1ccc([C@@H]2CNCCO2)nc1)c1[nH]nc(C2CC2)c1F | -2.19

Below: the item to evaluate.
Form field: reported log10 Ki of "O=C(Nc1ccc([C@H]2CNCCO2)nc1)c1[nH]nc(C(F)(F)F)c1Cl"
-1.31

----------
# Target desc: rat TAAR1 (Rattus norvegicus (Rat), UniProt Q923Y9)
# Sequence (Q923Y9 whole entry): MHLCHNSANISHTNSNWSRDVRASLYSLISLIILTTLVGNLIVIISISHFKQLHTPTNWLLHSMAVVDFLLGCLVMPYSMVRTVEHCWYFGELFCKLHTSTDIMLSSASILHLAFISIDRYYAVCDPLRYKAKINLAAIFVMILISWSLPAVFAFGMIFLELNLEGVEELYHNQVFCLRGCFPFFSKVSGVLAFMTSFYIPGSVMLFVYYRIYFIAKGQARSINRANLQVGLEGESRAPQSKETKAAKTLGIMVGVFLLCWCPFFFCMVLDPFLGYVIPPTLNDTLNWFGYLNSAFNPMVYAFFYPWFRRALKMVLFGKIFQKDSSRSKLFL
# Test method notes: Radioligand binding assay on rat TAAR1
# Condition label: rat TAAR1, membranes of stably transfected HEK-293 cells; second value of the pair; read-out: Ki (μM) mouse/rat: rat
In this section, each of the compounds is paired with its reported log10(Ki).
In our notation, the value equals log10 of Ki in µM.

Observe how each entry below is paired with its result.
• CCc1n[nH]c(C(=O)Nc2ccc([C@H]3CNCCO3)nc2)c1F [Example 83] = -0.12
• O=C(Nc1ccc(Cl)cc1)Nc1ccc(C2CNCCO2)nc1 (racemic) [Example 11] = -2.33
• Fc1cc(Nc2ccc(Cl)cn2)cnc1C1CNCCO1 (racemic) [Example 110] = 0.04
• CCCCc1n[nH]c(C(=O)Nc2ccc([C@@H]3CNCCO3)nc2)c1F [Example 90] = -1.57
• CCCc1n[nH]c(C(=O)Nc2cnc(C3CNCCO3)c(C)c2)c1Cl (racemic) [Example 118] = -0.22

Any idea what its log10(Ki) is? The compound is Clc1ccc(Nc2cnc(C3CNCCO3)c(Cl)c2)nc1 (racemic) [Example 102]
-0.34

Now the same for CCCc1n[nH]c(C(=O)Nc2ccc([C@H]3CNCCO3)nc2)c1Cl [Example 59]
-1.68

Repeat for the following compound: FC(F)(F)c1ccc(Nc2cnc(C3CNCCO3)nc2)cc1 (racemic) [Example 71]
-0.71

Also O=C(Nc1ccc(C2CNCCO2)nc1)c1ccnc(C(F)(F)F)c1 (racemic) [Example 16] ?
-0.84

----------
# Target desc: UniProt Q923Y9
# Test method notes: Radioligand binding assay on rat TAAR1
# Condition label: rat TAAR1, membranes of stably transfected HEK-293 cells; second value of the pair; read-out: Ki (μM) mouse/rat: rat
// assign Yes if Ki falls strictly below 0.05 µM, else No (ties count as No)

Record excerpt, results attached:
• CCc1n[nH]c(C(=O)Nc2ccc([C@H]3CNCCO3)nc2)c1C = No
• CC(C)c1n[nH]c(C(=O)Nc2ccc([C@@H]3CNCCO3)nc2)c1F = No

Turning now to a further compound:
Item "FC(F)(F)c1ccnc(Nc2ccc([C@@H]3CNCCO3)nc2)c1" : Ki beneath 0.05 µM, strictly?
No

----------
# Target desc: mouse TAAR1 (Mus musculus (Mouse))
# Test method notes: Radioligand binding assay on mouse TAAR1
# Condition label: mouse TAAR1, membranes of stably transfected HEK-293 cells; first value of the pair; read-out: Ki (μM) mouse/rat: mouse
Quick reference for Ki among some compounds
Please give a number only; it is taken to be in µM.

Example entries begin here.
* Cc1cc(NC(=O)c2ccnc(C(F)(F)F)c2)cnc1C1CNCCO1 (racemic) | 0.464
* CCCc1n[nH]c(C(=O)Nc2ccc([C@@H]3CNCCO3)nc2)c1F | 0.0074
* O=C(Nc1ccc([C@@H]2CNCCO2)nc1)c1ccc(C(F)(F)F)cc1 | 0.0056
* CCCc1n[nH]c(C(=O)Nc2ccc([C@H]3CNCCO3)nc2)c1Cl | 0.0063

Read the next record carefully.
Give mouse TAAR1 (Mus musculus (Mouse)) Ki for "O=C(Nc1ccc([C@H]2CNCCO2)nc1)c1[nH]nc(C2CC2)c1F"
0.0074

----------
# Target desc: mouse TAAR1 (Mus musculus (Mouse), UniProt Q923Y8)
# Test method notes: Radioligand binding assay on mouse TAAR1
# Condition label: mouse TAAR1, membranes of stably transfected HEK-293 cells; first value of the pair; read-out: Ki (μM) mouse/rat: mouse
# log10 of Ki values compiled below
Values below are the log10 of the recorded Ki, with µM as the unit.

Example entries begin here.
• Brc1ccc(Nc2ccc([C@@H]3CNCCO3)nc2)nc1 = -2.70
• Brc1ccc(Nc2ccc([C@H]3CNCCO3)nc2)nc1 = -2.41
• O=C(Nc1ccc([C@H]2CNCCO2)nc1)c1[nH]nc(C2CC2)c1Br = -2.28
• CCCc1n[nH]c(C(=O)Nc2cnc(C3CNCCO3)c(Cl)c2)c1Cl (racemic) = -1.62
• O=C(Nc1ccc([C@H]2CNCCO2)nc1)Nc1cccc(C(F)(F)F)c1 = -2.46

# query: log10 of Ki of entry "FC(F)(F)c1cccc(Nc2ccc([C@H]3CNCCO3)nc2)n1"
-2.30

Further, for CCOc1ccc(Nc2ccc(C3CNCCO3)nc2)cc1 (racemic) ?
-2.32

Would you kindly repeat that for "CC(C)Cc1cc(C(=O)Nc2ccc([C@H]3CNCCO3)nc2)[nH]n1" ?
-1.67

And the next one, "CCCc1c(Cl)c(C(=O)Nc2ccc([C@@H]3CNCCO3)nc2)nn1C" ?
-1.73

Let us now turn to "O=C(Nc1ccc([C@H]2CNCCO2)nc1)c1ccc(C(F)(F)F)cc1"
-2.21

Here is the next molecule: CCCc1n[nH]c(C(=O)Nc2cnc(C3CNCCO3)c(C)c2)c1Cl (racemic)
-1.33

Data credit: patent US9840501B2
